test: Solubility of the compound in FaSSIF at 1 mM by HPLC-UV analysis; type: physicochemical; settings: FaSSIF
Assay metric: solubility at 1000 µM (µg/mL)

[
  {
    "Structure smiles": "Cc1cc(N(C)C(N)=O)cc(C)c1CCS(=O)(=O)N1CCC2(CC1)N=C([C@H]1CC[C@H](C)CC1)NC2=O",
    "solubility at 1000 µM [µg/mL]": 250
  },
  {
    "Structure smiles": "O=C1NC(C2CCCCC2)=NC12CCN(S(=O)(=O)CCc1cccc3ccccc13)CC2",
    "solubility at 1000 µM [µg/mL]": 3.1
  },
  {
    "Structure smiles": "Cc1ccccc1CCS(=O)(=O)N1CCC2(CC1)N=C(C1CCCCC1)NC2=O",
    "solubility at 1000 µM [µg/mL]": 15
  },
  {
    "Structure smiles": "CC(=O)Nc1ccc(CCS(=O)(=O)N2CCC3(CC2)N=C(C2CCCCC2)NC3=O)c(C)c1",
    "solubility at 1000 µM [µg/mL]": 400
  }
]

A. Cc1cc(N(C)C(N)=O)cc(C)c1CCS(=O)(=O)N1CCC2(CC1)N=C(C1CCCCC1)NC2=O
B. CC(=O)Nc1cc(C)c(CCS(=O)(=O)N2CCC3(CC2)N=C(C2CCCCC2)NC3=O)c(C)c1
// which entry reports the smaller solubility at 1000 µM, A or B ? Use the label to indicate which entry you chose. B
(B: 38 µg/mL, A: 450 µg/mL)

---

target: Parathyroid hormone/parathyroid hormone-related peptide receptor (Homo sapiens); assay: Agonist activity at human PTHR1 expressed in HKRKB7 cells assessed as accumulation of intracellular cAMP after 20 mins by enzyme immunoassay
Sequence (Q03431 whole entry): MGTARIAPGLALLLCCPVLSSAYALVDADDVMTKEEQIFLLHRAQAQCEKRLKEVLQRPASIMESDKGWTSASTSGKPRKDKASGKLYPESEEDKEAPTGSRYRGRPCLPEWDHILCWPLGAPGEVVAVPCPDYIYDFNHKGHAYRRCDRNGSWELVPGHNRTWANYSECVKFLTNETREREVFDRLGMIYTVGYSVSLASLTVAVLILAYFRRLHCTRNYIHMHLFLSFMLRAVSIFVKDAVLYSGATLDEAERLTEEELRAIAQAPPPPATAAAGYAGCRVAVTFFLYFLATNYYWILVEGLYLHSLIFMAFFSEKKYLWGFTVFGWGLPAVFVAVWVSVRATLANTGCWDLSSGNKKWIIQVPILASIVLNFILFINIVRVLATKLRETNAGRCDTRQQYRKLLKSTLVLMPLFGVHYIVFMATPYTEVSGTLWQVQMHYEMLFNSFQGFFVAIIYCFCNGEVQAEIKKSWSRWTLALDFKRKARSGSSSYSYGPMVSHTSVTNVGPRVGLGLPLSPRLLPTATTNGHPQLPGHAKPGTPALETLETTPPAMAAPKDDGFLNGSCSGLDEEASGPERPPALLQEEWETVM
pEC50: −log10 of the molar value.
Assay metric: pEC50

Take a look at these entries with their results.
[
  {
    "Structure smiles": "Cc1cc(N(C)C(N)=O)cc(C)c1CCS(=O)(=O)N1CCC2(CC1)N=C([C@H]1CC[C@H](C)CC1)NC2=O",
    "Target or system": "Parathyroid hormone/parathyroid hormone-related peptide receptor (Homo sapiens)",
    "Assay metric": "pEC50",
    "Data value": 4.92
  },
  {
    "Structure smiles": "Cc1cc(N(C)C(N)=O)cc(C)c1CCS(=O)(=O)N1CCC2(CC1)N=C(C1CCCCC1)NC2=O",
    "Target or system": "Parathyroid hormone/parathyroid hormone-related peptide receptor (Homo sapiens)",
    "Assay metric": "pEC50",
    "Data value": 4.17
  }
]

1. CC(=O)Nc1cc(C)c(CCS(=O)(=O)N2CCC3(CC2)N=C(C2CCCCC2)NC3=O)c(C)c1
2. CC(=O)Nc1ccc(CCS(=O)(=O)N2CCC3(CC2)N=C(C2CCCCC2)NC3=O)c(C)c1
// which entry reports the smaller pEC50, 1 or 2 ? Use the label to indicate which entry you chose. 2
(2: 4.30, 1: 4.59)

---

experiment: Clearance in Crl:CD/SD IGS, CRJ rat at 3 mg/kg, iv by LC-MS/MS analysis; assay type: ADME, organism-based; details: in vivo
Assay metric: clearance (mL/min/kg)
Give the quantity in mL/min/kg, number only.

The value of clearance measured for the compound Cc1cc(N(C)C(N)=O)cc(C)c1CCS(=O)(=O)N1CCC2(CC1)N=C([C@H]1CC[C@H](C)CC1)NC2=O turned out to be 10.4
